# relative viability annotations
# Tested on: NCI-H1299
# TEST METHOD NOTES: relative viability (nuclei count vs DMSO), 5 days (fraction); higher = more cells survive
# SETUP CONDITIONS: first compound 0.002 µM
MEASURED QUANTITY: relative viability

[
  {
    "MOLECULE": "CCNC(=O)c1noc(-c2cc(C(C)C)c(O)cc2O)c1-c1ccc(CN2CCOCC2)cc1 [Luminespib] + Cc1nc(NC(=O)N2CCC[C@H]2C(N)=O)sc1-c1ccnc(C(C)(C)C(F)(F)F)c1 [Alpelisib] (partner 2 µM)",
    "VALUE": 1
  },
  {
    "MOLECULE": "CCNC(=O)c1noc(-c2cc(C(C)C)c(O)cc2O)c1-c1ccc(CN2CCOCC2)cc1 [Luminespib] + CC1(C)CCC(c2ccc(Cl)cc2)=C(CN2CCN(c3ccc(C(=O)NS(=O)(=O)c4ccc(N[C@H](CCN5CCOCC5)CSc5ccccc5)c(S(=O)(=O)C(F)(F)F)c4)cc3)CC2)C1 [Navitoclax] (partner 0.5 µM)",
    "VALUE": 1.03
  },
  {
    "MOLECULE": "CCNC(=O)c1noc(-c2cc(C(C)C)c(O)cc2O)c1-c1ccc(CN2CCOCC2)cc1 [Luminespib] + CS(=O)(=O)CCNCc1ccc(-c2ccc3ncnc(Nc4ccc(OCc5cccc(F)c5)c(Cl)c4)c3c2)o1 [Lapatinib] (partner 2 µM)",
    "VALUE": 1.04
  },
  {
    "MOLECULE": "CCNC(=O)c1noc(-c2cc(C(C)C)c(O)cc2O)c1-c1ccc(CN2CCOCC2)cc1 [Luminespib] + O=C(c1cc(Cc2n[nH]c(=O)c3ccccc23)ccc1F)N1CCN(C(=O)C2CC2)CC1 [Olaparib] (partner 8 µM)",
    "VALUE": 0.954
  }
]

====

# Tested on: NCI-H2087
# TEST METHOD NOTES: relative viability (nuclei count vs DMSO), 5 days (fraction); higher = more cells survive
# SETUP CONDITIONS: first compound 0.02 µM

[
  {
    "MOLECULE": "CCNC(=O)c1noc(-c2cc(C(C)C)c(O)cc2O)c1-c1ccc(CN2CCOCC2)cc1 [Luminespib] + O=C(CCCCCCC(=O)Nc1ccccc1)NO [Vorinostat] (partner 1 µM)",
    "relative viability": 0.656
  },
  {
    "MOLECULE": "CN1CCN(CCOc2cc(OC3CCOCC3)c3c(Nc4c(Cl)ccc5c4OCO5)ncnc3c2)CC1 [Saracatinib] + Nc1nc2[nH]cc(CCc3ccc(C(=O)N[C@@H](CCC(=O)O)C(=O)O)cc3)c2c(=O)[nH]1 [Pemetrexed] (partner 0.2 µM)",
    "relative viability": 0.63
  },
  {
    "MOLECULE": "CN1CCN(CCOc2cc(OC3CCOCC3)c3c(Nc4c(Cl)ccc5c4OCO5)ncnc3c2)CC1 [Saracatinib] + CS(=O)(=O)N1CCN(Cc2cc3nc(-c4cccc5[nH]ncc45)nc(N4CCOCC4)c3s2)CC1 [Pictilisib] (partner 1 µM)",
    "relative viability": 0.963
  },
  {
    "MOLECULE": "CCNC(=O)c1noc(-c2cc(C(C)C)c(O)cc2O)c1-c1ccc(CN2CCOCC2)cc1 [Luminespib] + Cc1nc(Nc2ncc(C(=O)Nc3c(C)cccc3Cl)s2)cc(N2CCN(CCO)CC2)n1 [Dasatinib] (partner 0.075 µM)",
    "relative viability": 0.317
  }
]

====

# System: 201T
# TEST METHOD NOTES: relative viability (nuclei count vs DMSO), 5 days (fraction); higher = more cells survive
# SETUP CONDITIONS: first compound 0.2 µM
Here the recorded relative viability is given for each entry.

[
  {
    "COMPOUND": "CCNC(=O)c1noc(-c2cc(C(C)C)c(O)cc2O)c1-c1ccc(CN2CCOCC2)cc1 [Luminespib] + CS(=O)(=O)N1CCN(Cc2cc3nc(-c4cccc5[nH]ncc45)nc(N4CCOCC4)c3s2)CC1 [Pictilisib] (partner 1 µM)",
    "relative viability": 0.58
  },
  {
    "COMPOUND": "CN1CCN(CCOc2cc(OC3CCOCC3)c3c(Nc4c(Cl)ccc5c4OCO5)ncnc3c2)CC1 [Saracatinib] + C[C@]1(O)C[C@@H](c2nc(-c3ccc4ccc(-c5ccccc5)nc4c3)c3c(N)nccn32)C1 [Linsitinib] (partner 1 µM)",
    "relative viability": 0.927
  },
  {
    "COMPOUND": "CN1CCN(CCOc2cc(OC3CCOCC3)c3c(Nc4c(Cl)ccc5c4OCO5)ncnc3c2)CC1 [Saracatinib] + COc1cc2c(Oc3ccc(NC(=O)C4(C(=O)Nc5ccc(F)cc5)CC4)cc3F)ccnc2cc1OCCCN1CCOCC1 [Foretinib] (partner 0.25 µM)",
    "relative viability": 0.752
  },
  {
    "COMPOUND": "CCNC(=O)c1noc(-c2cc(C(C)C)c(O)cc2O)c1-c1ccc(CN2CCOCC2)cc1 [Luminespib] + CS(=O)(=O)CCNCc1ccc(-c2ccc3ncnc(Nc4ccc(OCc5cccc(F)c5)c(Cl)c4)c3c2)o1 [Lapatinib] (partner 2 µM)",
    "relative viability": 0.986
  },
  {
    "COMPOUND": "Cc1csc(=NC2CCCCC2)n1/N=C/c1ccc(O)c(O)c1O [MIM1] + CC(=O)Nc1cccc(-n2c(=O)n(C3CC3)c(=O)c3c(Nc4ccc(I)cc4F)n(C)c(=O)c(C)c32)c1 [Trametinib] (partner 0.02 µM)",
    "relative viability": 0.704
  },
  {
    "COMPOUND": "CCNC(=O)c1noc(-c2cc(C(C)C)c(O)cc2O)c1-c1ccc(CN2CCOCC2)cc1 [Luminespib] + N=C(N)NC(=N)NCCc1ccccc1 [Phenformin] (partner 250 µM)",
    "relative viability": 0.24
  },
  {
    "COMPOUND": "CN1CCN(CCOc2cc(OC3CCOCC3)c3c(Nc4c(Cl)ccc5c4OCO5)ncnc3c2)CC1 [Saracatinib] + CS(=O)(=O)N1CCN(Cc2cc3nc(-c4cccc5[nH]ncc45)nc(N4CCOCC4)c3s2)CC1 [Pictilisib] (partner 1 µM)",
    "relative viability": 0.627
  },
  {
    "COMPOUND": "Cc1csc(=NC2CCCCC2)n1/N=C/c1ccc(O)c(O)c1O [MIM1] + O=C(c1cc(Cc2n[nH]c(=O)c3ccccc23)ccc1F)N1CCN(C(=O)C2CC2)CC1 [Olaparib] (partner 8 µM)",
    "relative viability": 0.833
  },
  {
    "COMPOUND": "Cc1csc(=NC2CCCCC2)n1/N=C/c1ccc(O)c(O)c1O [MIM1] + COc1cc2c(Oc3ccc(NC(=O)C4(C(=O)Nc5ccc(F)cc5)CC4)cc3F)ccnc2cc1OCCCN1CCOCC1 [Foretinib] (partner 0.25 µM)",
    "relative viability": 1.11
  }
]

====

# Tested on: NCI-H1993
# TEST METHOD NOTES: relative viability (nuclei count vs DMSO), 5 days (fraction); higher = more cells survive
# SETUP CONDITIONS: first compound 2 µM
MEASURED QUANTITY: relative viability

[
  {
    "COMPOUND": "CN1CCN(CCOc2cc(OC3CCOCC3)c3c(Nc4c(Cl)ccc5c4OCO5)ncnc3c2)CC1 [Saracatinib] + Cc1nc(Nc2ncc(C(=O)Nc3c(C)cccc3Cl)s2)cc(N2CCN(CCO)CC2)n1 [Dasatinib] (partner 0.075 µM)",
    "MEASURED ON": "NCI-H1993",
    "VALUE": 0.501
  },
  {
    "COMPOUND": "CN1CCN(CCOc2cc(OC3CCOCC3)c3c(Nc4c(Cl)ccc5c4OCO5)ncnc3c2)CC1 [Saracatinib] + Nc1nc2[nH]cc(CCc3ccc(C(=O)N[C@@H](CCC(=O)O)C(=O)O)cc3)c2c(=O)[nH]1 [Pemetrexed] (partner 0.2 µM)",
    "MEASURED ON": "NCI-H1993",
    "VALUE": 0.471
  },
  {
    "COMPOUND": "Cc1csc(=NC2CCCCC2)n1/N=C/c1ccc(O)c(O)c1O [MIM1] + NC(=O)Nc1cc(-c2cccc(F)c2)sc1C(=O)N[C@H]1CCCNC1 [AZD7762] (partner 0.2 µM)",
    "MEASURED ON": "NCI-H1993",
    "VALUE": 0.73
  },
  {
    "COMPOUND": "Cc1csc(=NC2CCCCC2)n1/N=C/c1ccc(O)c(O)c1O [MIM1] + CC(C)C[C@H](NC(=O)[C@H](Cc1ccccc1)NC(=O)c1cnccn1)B(O)O [Bortezomib] (partner 0.002 µM)",
    "MEASURED ON": "NCI-H1993",
    "VALUE": 1.11
  },
  {
    "COMPOUND": "Cc1csc(=NC2CCCCC2)n1/N=C/c1ccc(O)c(O)c1O [MIM1] + O=C(CCCCCCC(=O)Nc1ccccc1)NO [Vorinostat] (partner 1 µM)",
    "MEASURED ON": "NCI-H1993",
    "VALUE": 0.601
  },
  {
    "COMPOUND": "CN1CCN(CCOc2cc(OC3CCOCC3)c3c(Nc4c(Cl)ccc5c4OCO5)ncnc3c2)CC1 [Saracatinib] + C[C@]1(O)C[C@@H](c2nc(-c3ccc4ccc(-c5ccccc5)nc4c3)c3c(N)nccn32)C1 [Linsitinib] (partner 1 µM)",
    "MEASURED ON": "NCI-H1993",
    "VALUE": 0.621
  },
  {
    "COMPOUND": "CN1CCN(CCOc2cc(OC3CCOCC3)c3c(Nc4c(Cl)ccc5c4OCO5)ncnc3c2)CC1 [Saracatinib] + Cc1nc(NC(=O)N2CCC[C@H]2C(N)=O)sc1-c1ccnc(C(C)(C)C(F)(F)F)c1 [Alpelisib] (partner 2 µM)",
    "MEASURED ON": "NCI-H1993",
    "VALUE": 0.656
  },
  {
    "COMPOUND": "CN1CCN(CCOc2cc(OC3CCOCC3)c3c(Nc4c(Cl)ccc5c4OCO5)ncnc3c2)CC1 [Saracatinib] + COc1cccc2cc(-c3nc([C@H]4CC[C@H](C(=O)O)CC4)n4ncnc(N)c34)[nH]c12 [OSI-027] (partner 0.5 µM)",
    "MEASURED ON": "NCI-H1993",
    "VALUE": 0.525
  },
  {
    "COMPOUND": "CN1CCN(CCOc2cc(OC3CCOCC3)c3c(Nc4c(Cl)ccc5c4OCO5)ncnc3c2)CC1 [Saracatinib] + O=C(c1cc(Cc2n[nH]c(=O)c3ccccc23)ccc1F)N1CCN(C(=O)C2CC2)CC1 [Olaparib] (partner 8 µM)",
    "MEASURED ON": "NCI-H1993",
    "VALUE": 0.989
  }
]
